Reported Binding to CHO-cTREM2 MFI by item:
Target: T1, cynomolgus TREM2 (cynomolgus, UniProt A0A2K5UY34 49-260)
T1 construct: also called cynoTREM2; cTREM2
T1 sequence: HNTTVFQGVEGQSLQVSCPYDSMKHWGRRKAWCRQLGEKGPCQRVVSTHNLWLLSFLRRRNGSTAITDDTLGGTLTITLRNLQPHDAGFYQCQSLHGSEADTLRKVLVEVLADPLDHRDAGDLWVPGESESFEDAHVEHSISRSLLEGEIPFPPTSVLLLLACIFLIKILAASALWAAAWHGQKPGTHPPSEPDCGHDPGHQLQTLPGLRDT
Test: MFI on CHO cells over-expressing cynoTREM2-DAP12
# number only, unit MFI dropped from output

Please review the entries below; each comes with its answer.
>  <BINDER>
EOS006175 (antibody, V domains shown) VH: QVQLQESGPGLVKPSGTLSLTCAVSGGSISSSNWWSWVRQPPGKGLEWIGEIYHSGSTNYNPSLKSRVTISVDKSKNQFSLKLSSVTAADTAVYYCARDTKYWGGMDVWGQGTTVTVSS VL: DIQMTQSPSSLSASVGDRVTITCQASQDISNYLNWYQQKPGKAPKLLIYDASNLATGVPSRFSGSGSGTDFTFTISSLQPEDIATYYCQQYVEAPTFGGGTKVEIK

>  <Binding to CHO-cTREM2 MFI (MFI)>
10200

$$$$
>  <BINDER>
EOS006170 (antibody, V domains shown) VH: QVQLQESGPGLVKPSGTLSLTCAVSGGSISSSNWWSWVRQPPGKGLEWIGEIYHSGSTNYNPSLKSRVTISVDKSKNQFSLKLSSVTAADTAVYYCARDTKYQAGMDVWGQGTTVTVSS VL: DIQMTQSPSSLSASVGDRVTITCQASQDISNYLNWYQQKPGKAPKLLIYDASNLATGVPSRFSGSGSGTDFTFTISSLQPEDIATYYCQQYVVFPTFGGGTKVEIK

>  <Binding to CHO-cTREM2 MFI (MFI)>
1650

$$$$

Field: next binder
I am curious: what Binding to CHO-cTREM2 MFI value has been reported for EOS006181 (antibody, V domains shown) VH: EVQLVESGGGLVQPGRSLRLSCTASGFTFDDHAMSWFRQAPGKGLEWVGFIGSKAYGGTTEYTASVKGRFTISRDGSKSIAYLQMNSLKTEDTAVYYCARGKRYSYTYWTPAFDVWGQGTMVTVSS VL: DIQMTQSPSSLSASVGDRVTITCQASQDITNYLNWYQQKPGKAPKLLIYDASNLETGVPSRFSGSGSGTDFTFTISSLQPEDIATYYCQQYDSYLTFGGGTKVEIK ? 11900

All figures here come from patent US20250282868A1.
